Some molecules, each annotated with its measured log10(IC50).
- TESTED ON: MMP-13CD (catalytic domain of collagenase-3) (Homo sapiens, UniProt P45452)
- TEST NAME: thiopeptolide substrate hydrolysis assay, MMP-13CD
- Format: biochemical
- EXPERIMENTAL PARAMETERS: Table 1
- Experimental: The invention compounds of Formula I have been evaluated in standard assays for their ability to inhibit the activity of various MMP enzymes. […] Thiopeptolide substrates show virtually no decomposition or hydrolysis in the absence of a matrix metalloproteinase enzyme. […] The change in absorbance at 405 nm is monitored on a Thermo Max microplate reader (Molecular Devices, Menlo Park, Calif.) at room temperature (22° C.). […]
READOUT KIND: log10(IC50) (log10 of the value in µM)

> print(dat)
                                 cpd.smiles  readout.kind  result
1  O=C(OCc1ccc2c(c1)OCO2)c1csc(C(=O)OCc2ccc3c(c2)OCO3)c1   log10(IC50)   -0.35
2  Cc1sc(C(=O)OCc2ccccc2)cc1NC(=O)NCc1ccccc1   log10(IC50)    1.34
3  Cn1cc(C(=O)NCc2ccc3c(c2)OCO3)cc1C(=O)NCc1ccc2c(c1)OCO2   log10(IC50)    0.48
4  O=C(OCc1ccc2c(c1)OCO2)c1ccc(C(=O)OCc2ccc3c(c2)OCO3)s1   log10(IC50)    0.93
5  Cc1sc(C(=O)NCc2ccccc2)cc1NC(=O)NCc1ccccc1   log10(IC50)    1.15

###

- TESTED ON: MMP-13CD (catalytic domain of collagenase-3) (Homo sapiens)
- TEST NAME: thiopeptolide substrate hydrolysis assay, MMP-13CD
- Type: biochemical
- EXPERIMENTAL PARAMETERS: Table 2
pIC50: −log10 of the molar value.
READOUT KIND: pIC50

> print(dat)
                                   molecule  result
1  Cc1sc(C(=O)OCc2ccc3c(c2)OCO3)cc1NC(=O)NCc1ccccc1 [Example 15a]    6.46

###

- TESTED ON: MMP-13CD (catalytic domain of collagenase-3) (Homo sapiens)
- TEST NAME: thiopeptolide substrate hydrolysis assay, MMP-13CD
- Type: biochemical
- EXPERIMENTAL PARAMETERS: Table 1
Some compounds, each annotated with its measured IC50.
READOUT KIND: IC50 (µM)

> print(dat)
                                   compound  result
1  CNc1sc(C(=O)NCc2ccc(OC)cc2)cc1C(=O)NCc1ccc(C(=O)O)c(C)c1 [Example 21]     3.4
2  Cc1sc(C(=O)NCc2ccc3c(c2)OCO3)cc1NC(=O)NCc1ccccc1 [Example 15b]    0.92
3  Cc1sc(C(=O)OCc2ccc3c(c2)OCO3)cc1NC(=O)Cc1ccccc1 [Example 11]    0.19
4  Cn1cc(C(=O)OCc2ccc3c(c2)OCO3)cc1C(=O)OCc1ccc2c(c1)OCO2 [Example 7]    0.97
5  O=C(NCc1ccc2c(c1)OCO2)c1ccc(C(=O)NCc2ccc3c(c2)OCO3)s1 [Example 2]    0.85
6  COc1cc(C(=O)OCc2ccc3c(c2)OCO3)sc1C(=O)OCc1ccc2c(c1)OCO2 [Example 3]     3.6
7  COC(=O)c1cc(NC(=O)NCc2ccccc2)c(C)s1 [Example 16]       2
8  Cc1sc(C(=O)OCc2ccccc2)cc1NC(=O)Cc1ccccc1 [Example 9]     2.3
9  O=C(NCc1ccc2c(c1)OCO2)c1csc(C(=O)NCc2ccc3c(c2)OCO3)c1 [Example 6]    0.37

###

- TESTED ON: MMP-13CD (catalytic domain of collagenase-3) (Homo sapiens)
- TEST NAME: thiopeptolide substrate hydrolysis assay, MMP-13CD
- Type: biochemical
- EXPERIMENTAL PARAMETERS: Table 1
pIC50: −log10 of the molar value.
READOUT KIND: pIC50

> print(dat)
                                   compound  readout.kind  censoring.sign  result
1  COc1cc(C(=O)NCc2ccccc2)sc1C(=O)NCc1ccccc1 [Example 22]         pIC50               ≤    4.00
2  COc1cc(C(=O)NCc2ccc3c(c2)OCO3)sc1C(=O)NCc1ccc2c(c1)OCO2 [Example 4]         pIC50               =    6.70
3  Cc1sc(C(=O)NCc2ccccc2)cc1NC(=O)Cc1ccccc1 [Example 10]         pIC50               =    4.52
4  O=C(NCc1ccccc1)Nc1nnc(C(=O)OCc2ccccc2)s1 [Example 23]         pIC50               =    4.52
5  Cc1sc(C(=O)NCc2ccc3c(c2)OCO3)cc1NC(=O)Cc1ccccc1 [Example 12]         pIC50               =    5.57

###

Some molecules, each annotated with its measured melting point.
READOUT KIND: melting point

> print(dat)
                                   molecule         result
1  Cc1sc(C(=O)OCc2ccccc2)cc1NC(=O)NCc1ccccc1  208 to 209 °C
2  Cc1sc(C(=O)OCc2ccc3c(c2)OCO3)cc1NC(=O)NCc1ccccc1 [Example 15a]  216 to 217 °C
3  Cc1sc(C(=O)NCc2ccc3c(c2)OCO3)cc1NC(=O)NCc1ccccc1 [Example 15b]  194 to 195 °C
4  Cn1cc(C(=O)OCc2ccc3c(c2)OCO3)cc1C(=O)OCc1ccc2c(c1)OCO2  103 to 110 °C
5       COC(=O)c1cc(NC(=O)NCc2ccccc2)c(C)s1  185 to 187 °C
6  O=C(OCc1ccc2c(c1)OCO2)c1ccc(C(=O)OCc2ccc3c(c2)OCO3)s1  141 to 148 °C
7  O=C(NCc1ccc2c(c1)OCO2)c1csc(C(=O)NCc2ccc3c(c2)OCO3)c1  174 to 175 °C
8  O=C(NCc1ccc2c(c1)OCO2)c1ccc(C(=O)NCc2ccc3c(c2)OCO3)s1  207 to 209 °C
9  COc1cc(C(=O)OCc2ccc3c(c2)OCO3)sc1C(=O)OCc1ccc2c(c1)OCO2  153 to 155 °C

###

Record set of IC50 for target or system MMP-7 (Homo sapiens).
READOUT KIND: IC50 (µM)

> print(dat)
                                   compound             tested.on  result
1  Cc1sc(C(=O)NCc2ccc3c(c2)OCO3)cc1NC(=O)NCc1ccccc1 [Example 15b]  MMP-7 (Homo sapiens)      45
2  O=C(NCc1ccc2c(c1)OCO2)c1csc(C(=O)NCc2ccc3c(c2)OCO3)c1  MMP-7 (Homo sapiens)      32

###

Some compounds, each annotated with its measured melting point.
READOUT KIND: melting point

> print(dat)
                                   compound   readout.kind         result
1  Cc1sc(C(=O)NCc2ccc3c(c2)OCO3)cc1NC(=O)Cc1ccccc1 [Example 12]  melting point  138 to 140 °C
2  Cc1sc(C(=O)OCc2ccccc2)cc1NC(=O)Cc1ccccc1 [Example 9]  melting point  173 to 174 °C
3  COc1cc(C(=O)NCc2ccc3c(c2)OCO3)sc1C(=O)NCc1ccc2c(c1)OCO2 [Example 4]  melting point  191 to 195 °C
4  Cn1cc(C(=O)NCc2ccc3c(c2)OCO3)cc1C(=O)NCc1ccc2c(c1)OCO2 [Example 8]  melting point  147 to 152 °C
5  O=C(NCc1ccccc1)Nc1nnc(C(=O)OCc2ccccc2)s1 [Example 23]  melting point  188 to 192 °C
6  O=C(OCc1ccc2c(c1)OCO2)c1csc(C(=O)OCc2ccc3c(c2)OCO3)c1 [Example 5]  melting point  164 to 165 °C

Reference for the values: patent US6924276B2
